Reference for the values: PubChem BioAssay AID720707

Target: Rap guanine nucleotide exchange factor 3 (Homo sapiens) (UniProt O95398)
Sequence (O95398 whole entry, looked up): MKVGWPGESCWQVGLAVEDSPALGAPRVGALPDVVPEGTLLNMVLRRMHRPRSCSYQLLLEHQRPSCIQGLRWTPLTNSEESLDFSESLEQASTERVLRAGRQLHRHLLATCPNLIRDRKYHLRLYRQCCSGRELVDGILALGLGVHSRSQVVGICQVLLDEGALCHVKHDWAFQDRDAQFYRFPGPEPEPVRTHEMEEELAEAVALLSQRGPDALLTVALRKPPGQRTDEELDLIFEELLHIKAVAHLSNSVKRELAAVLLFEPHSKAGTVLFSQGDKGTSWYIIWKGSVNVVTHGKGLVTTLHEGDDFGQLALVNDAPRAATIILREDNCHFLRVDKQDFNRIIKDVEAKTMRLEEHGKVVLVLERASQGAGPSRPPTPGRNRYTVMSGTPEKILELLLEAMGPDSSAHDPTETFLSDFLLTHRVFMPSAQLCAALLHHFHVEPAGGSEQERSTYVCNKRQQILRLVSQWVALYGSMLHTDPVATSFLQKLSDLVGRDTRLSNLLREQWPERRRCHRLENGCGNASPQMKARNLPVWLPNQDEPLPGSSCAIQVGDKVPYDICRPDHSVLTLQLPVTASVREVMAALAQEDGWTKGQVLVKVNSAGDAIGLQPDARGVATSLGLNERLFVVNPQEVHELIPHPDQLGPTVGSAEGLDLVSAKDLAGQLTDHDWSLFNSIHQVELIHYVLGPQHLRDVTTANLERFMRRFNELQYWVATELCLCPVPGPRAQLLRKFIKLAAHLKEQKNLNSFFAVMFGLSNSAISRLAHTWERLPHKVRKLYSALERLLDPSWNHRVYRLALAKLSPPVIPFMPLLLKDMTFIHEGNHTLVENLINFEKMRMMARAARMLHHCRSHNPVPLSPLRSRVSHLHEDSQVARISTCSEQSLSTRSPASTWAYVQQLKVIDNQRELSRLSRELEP
Assay: qHTS for Agonist of cAMP-regulated guanine nucleotide exchange factor 3 (EPAC1): primary screen; further: nearly all actives have a fitted effect of over 60% in size
Details: biochemical assay; series mostly up to 154 µM
The campaign covered roughly 360,000 compounds. About 270 (0.075%) were called active. The call rests on the fitted dose curve; in most records, active means well fitted activation curve with a large enough effect; inconclusive means small, poorly fitted or top-dose-only effect; inactive means no such curve, though single readings can be large or run the other way. The entries come from a sample that favours actives as a whole.
Outcomes: t (active), f (inactive)

>>> label_class("O=C(O)CCCCCCCCCC[n+]1ccccc1")
"f"
>>> label_class("O=C(NCCc1ccco1)C(=O)NCCC1CCCCN1S(=O)(=O)c1ccccc1 (stereo not drawn)")
"f"
>>> label_class("COc1ccccc1NC(=O)CSc1nnc(CNC(=O)c2ccccc2F)o1")
"f"
>>> label_class("CCCCCn1c(SCCC(C)C)nc2c1c(=O)[nH]c(=O)n2C")
"f"
>>> label_class("COc1ccc(N2CCN(C(CNS(=O)(=O)c3ccc(C)cc3)c3ccccc3)CC2)cc1 (stereo not drawn)")
"f"
>>> label_class("COC(=O)c1cc(NC(=O)CN2CCC(C(N)=O)(N3CCCCC3)CC2)cc(C(=O)OC)c1")
"f"
>>> label_class("COCCCNc1nc2ccccc2nc1NS(=O)(=O)c1ccc(F)cc1")
"f"
>>> label_class("O=C(NCCC1CCCCN1S(=O)(=O)c1ccccc1)C(=O)NCC1CCCO1 (stereo not drawn)")
"f"
>>> label_class("O=C(NC(C(=O)NCCN1CCOCC1)C12CC3CC(CC(C3)C1)C2)C1CCCCC1 (stereo not drawn)")
"f"
>>> label_class("COc1cc(NS(=O)(=O)c2ccc(N/C=C(\\C=O)c3nc4cc(Cl)ccc4o3)cc2)nc(OC)n1")
"f"
>>> label_class("CC(=O)c1ccc(N2CCN(S(=O)(=O)c3c(C)[nH]c(=O)[nH]c3=O)CC2)cc1")
"f"
>>> label_class("O=C(COc1ccc2ccccc2c1)N1CCN(C(=O)c2cccs2)CC1")
"f"
>>> label_class("CCN(CC)c1ccc2oc(=O)c(C)nc2c1")
"t"
>>> label_class("O=C(CSc1nnc(-c2ccncc2)o1)NCc1ccc(Cl)cc1")
"f"
>>> label_class("CCc1c(C)sc(NC(=O)OC)c1C(=O)N1CCOCC1")
"f"
>>> label_class("Nc1ccc2nc3c(=O)[nH]c(=S)[nH]c3nc2c1")
"t"
>>> label_class("COc1ccc(NC(=O)C2CCC(CNS(=O)(=O)c3csc(C(N)=O)c3)CC2)cc1OC (stereo not drawn)")
"f"
>>> label_class("O=C1CCC(=O)N1CCOP1(=O)COc2ccccc2OC1")
"f"
>>> label_class("COC(=O)CN(c1cccc(C(C)=O)c1)S(C)(=O)=O")
"f"
>>> label_class("C[n+]1ccc(/C=C/c2c[nH]c3ccccc23)cc1")
"t"
>>> label_class("CCOc1ccc(-c2n[nH]c(=S)n2/N=C/c2cc3c(cc2[N+](=O)[O-])OCO3)cc1")
"f"
>>> label_class("Cc1ccc2c(c1)N(CC(=O)N1CCC(O)CC1)C(=O)CO2")
"f"
>>> label_class("O=C(c1cnn2ccccc12)N1CCc2ccccc21")
"f"
>>> label_class("O=C1CC2(CC(c3ccc(Cl)cc3)=NO2)C(=O)N1c1ccccc1 (stereo not drawn)")
"f"
>>> label_class("CCNC(=O)c1cnn(-c2ccccc2)c1-c1ccccc1")
"f"
>>> label_class("NC(=O)C1CCN(C(=O)c2ccc(-c3ccccc3)cc2)CC1")
"f"
>>> label_class("Cc1cc([N+](=O)[O-])nn1CC(=O)Nc1ccc(Cc2ccncc2)cc1")
"f"
>>> label_class("Cc1ccc(S(=O)(=O)N(C)C)cc1NC(=O)C1Cc2ccccc2CN1C(=O)c1ccco1 (stereo not drawn)")
"f"
>>> label_class("N#CCCCn1c(O)c(N=NC(=O)C(O)c2ccccc2)c2ccccc21 (stereo not drawn)")
"f"
>>> label_class("Cc1ccc(C(C)C)c(OCc2nnc(SCC(=O)Nc3nccs3)n2C)c1")
"f"
>>> label_class("CC(C)N1CCC(=NNc2ccc([N+](=O)[O-])cc2S(=O)(=O)N2CCOCC2)CC1")
"f"
>>> label_class("C[C@H]1CN([C@@H](C)CO)C(=O)CCCn2cc(nn2)CO[C@@H]1CN(C)S(=O)(=O)c1cccc(C#N)c1")
"f"
>>> label_class("Cc1ccc([C@H]2C[C@H](O)[C@@H](n3cc(COC(=O)c4ccccc4)nn3)CN2C(=O)C2CCCCC2)cc1")
"f"
>>> label_class("O=C(O)C1=C[C@H](c2cccs2)C[C@H](OCCCCO)O1")
"f"
>>> label_class("CC(=O)N[C@H]1[C@H]([C@H](O)[C@H](O)CO)OC(C(=O)O)=C[C@@H]1O")
"f"
>>> label_class("CN(CC(=O)Nc1ccccc1[N+](=O)[O-])Cc1ccc(Br)cc1")
"f"
>>> label_class("OCCN1CCOCCOCCN(CCO)CCN(CCO)CC1")
"f"
>>> label_class("O=C(CSc1nnc2c(n1)[nH]c1ccccc12)NC1CCCCC1")
"f"
>>> label_class("O=C(Nc1ccccc1Cl)NC1(C(=O)N2CCOCC2)CCCCC1")
"f"
>>> label_class("Cc1ccccc1N1C(=O)C2ON(c3ccccc3)C(c3ccncc3)C2C1=O (stereo not drawn)")
"f"
>>> label_class("C(#CCN1CCOCC1)CCCN1CCOCC1")
"f"
>>> label_class("Cc1ccc(NS(=O)(=O)c2cn(C)c(=O)n(C)c2=O)c(C)c1")
"f"
>>> label_class("COc1cc(C(=O)NCC(c2ccco2)N2CCCC2)ccc1OCc1ccccc1 (stereo not drawn)")
"f"

----------
Biological target: Rap guanine nucleotide exchange factor 3 (Homo sapiens) (UniProt O95398)
Assay: qHTS for Agonist of cAMP-regulated guanine nucleotide exchange factor 3 (EPAC1): primary screen; further: nearly all actives have a fitted effect of over 60% in size
Details: biochemical assay; series mostly up to 154 µM
Screen size: about 360,000 compounds; about 270 (0.075%) were called active. Calls follow the shape of the dose curve; as a rule, active = well fitted activation curve with a large enough effect; inconclusive = small, poorly fitted or top-dose-only effect; inactive = no such curve, though single readings can be large or run the other way. The entries come from a sample that favours actives as a whole.
Outcomes: 1.0 = active, 0.0 = inactive

>>> label_class("C=CCN(CC=C)C(=O)COC(=O)c1n[nH]c2ccccc12")
0.0
>>> label_class("Cc1ccc(CNC(=O)c2cccc3c2C(=O)c2ccc(N4CCC(C)CC4)cc2S3(=O)=O)cc1")
1.0
>>> label_class("CO/N=C/c1cn(-c2ccc(Cl)cc2)nn1")
0.0
>>> label_class("COc1cccc(-c2ccc3c(c2)S(=O)(=O)c2cccc(C(=O)O)c2C3=O)c1OC")
0.0
>>> label_class("Cn1cnc([N+](=O)[O-])c1Nc1ccccc1O")
0.0
>>> label_class("O=S(=O)(c1ccccc1)c1nc(Cc2ccccc2)oc1N1CCOCC1")
0.0
>>> label_class("Cc1ccc(C(=O)OCC(=O)NCc2cc(C)c(O)c(C)c2)cc1S(=O)(=O)N1CCCCC1")
0.0
>>> label_class("Cc1cc(NS(=O)(=O)c2ccc(NC(=O)C(C)Oc3cccc(C)c3C)cc2)nc(C)n1 (stereo not given)")
0.0
>>> label_class("COCC1CCCCN1C(=O)c1cc(COc2ccc(C)c(C)c2)on1 (stereo not given)")
0.0
>>> label_class("CCCCC(=O)N(c1ccc(OC)cc1)C1C=CS(=O)(=O)C1 (stereo not given)")
0.0

----------
Target: Rap guanine nucleotide exchange factor 3 (Homo sapiens)
Assay: qHTS for Agonist of cAMP-regulated guanine nucleotide exchange factor 3 (EPAC1): primary screen; further: nearly all actives have a fitted effect of over 60% in size
Settings: biochemical assay; series mostly up to 154 µM
Among all 360,000 compounds or so, about 270 (0.075%) were called active. Calls come from the whole dose curve; as a rule, active = well fitted activation curve with a large enough effect; inconclusive = small, poorly fitted or top-dose-only effect; inactive = no such curve, though single readings can be large or run the other way. What follows is part of a selection rich in actives, with near analogues and random picks from the rest.
Outcomes: YES (active), NO (inactive)

>>> label_class("CCOC(=O)c1ccccc1NC(=O)COC(=O)CCC(=O)N1CCOCC1")
"NO"
>>> label_class("Cc1ccc(-c2nc(C)sc2CC(=O)OCC(=O)Nc2c(F)cccc2F)cc1")
"NO"
>>> label_class("O=C1CCCN2N=C(SCC(=O)Nc3ccc(Br)cc3)SC2=N1")
"NO"
>>> label_class("CC(=O)Nc1ccc(S(=O)(=O)N2CCN(C(=O)c3ccccc3F)CC2)cc1")
"NO"
>>> label_class("COC(=O)c1ccccc1NC(=O)CSc1nc2c(c(=O)[nH]1)CCC2")
"NO"
>>> label_class("CCOC(=O)c1ccccc1NC(=O)COC(=O)C(Cc1c[nH]c2ccccc12)NC(C)=O (stereo unspecified)")
"YES"
>>> label_class("Cc1nc(NC(=O)C23CCC(C)(C(=O)O2)C3(C)C)sc1C (stereo unspecified)")
"NO"
>>> label_class("Cc1cc(C)cc(NC(=O)C(c2ccccc2)N2CCN(CC(=O)N3CCCC3)CC2)c1 (stereo unspecified)")
"NO"
>>> label_class("Cc1ccc2c(CSc3nncs3)cc(=O)oc2c1")
"NO"
>>> label_class("CCOC(=O)c1c(NC(=O)CNC2CCCc3ccccc32)sc(C(N)=O)c1C (stereo unspecified)")
"NO"
>>> label_class("O=C(Nc1cc2c3c(c1)CC(=O)N3CCC2)c1ccccc1F")
"NO"
